ASSAYED_TARGET: T1, recombinant human VEGF165 (human, UniProt P15692-4 27-191, biotinylated in the competition assays)
T1 construct: Bought protein; also called hVEGF165; rhVEGF165
T1 sequence (P15692 other isoform, or with tags, fused parts or gaps): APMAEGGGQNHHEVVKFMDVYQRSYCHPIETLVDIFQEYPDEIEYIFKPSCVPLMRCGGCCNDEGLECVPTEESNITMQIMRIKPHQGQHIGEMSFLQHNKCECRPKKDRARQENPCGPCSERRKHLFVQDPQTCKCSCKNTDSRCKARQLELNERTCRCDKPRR
ASSAY_NOTES: SPR Biacore, immobilised hVEGF165, two state reaction model
Each record here notes measured ka2.
In your response, put the unit directly after the numeric value.

Check out these entries, answers already filled in.
- BINDER: "VEGFBII022 (VHH, not shown: small tags and cut ends, Bivalent (heterodimeric) anti-VEGF VHH; also called VEGFBII23B04-9GS-5B05) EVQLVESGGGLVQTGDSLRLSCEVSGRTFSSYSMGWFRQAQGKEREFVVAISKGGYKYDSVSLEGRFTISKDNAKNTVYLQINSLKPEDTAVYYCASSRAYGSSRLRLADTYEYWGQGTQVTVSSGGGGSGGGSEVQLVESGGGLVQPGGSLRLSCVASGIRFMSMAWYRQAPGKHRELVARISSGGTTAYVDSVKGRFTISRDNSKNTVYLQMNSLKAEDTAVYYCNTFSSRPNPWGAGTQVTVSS"
  RESULT_TYPE: "ka2"
  RESULT: "0.014 s⁻¹"
- BINDER: "VEGFBII023 (VHH, not shown: small tags and cut ends, Bivalent anti-VEGF VHH; also called VEGFBII23B04-40GS-10E07) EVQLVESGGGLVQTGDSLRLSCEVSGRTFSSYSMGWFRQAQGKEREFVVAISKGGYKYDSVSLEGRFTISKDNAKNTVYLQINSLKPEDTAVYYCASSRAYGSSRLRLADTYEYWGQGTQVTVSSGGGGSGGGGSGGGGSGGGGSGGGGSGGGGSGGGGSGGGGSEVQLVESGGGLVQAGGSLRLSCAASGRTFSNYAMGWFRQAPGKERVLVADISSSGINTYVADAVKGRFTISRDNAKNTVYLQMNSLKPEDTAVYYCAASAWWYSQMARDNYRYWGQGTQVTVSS"
  RESULT_TYPE: "ka2"
  RESULT: "0.024 s⁻¹"
- BINDER: "VEGFBII010 (VHH, not shown: small tags and cut ends, Homodimeric bivalent anti-VEGF VHH; also called VEGFBII23B04-35GS-23B04) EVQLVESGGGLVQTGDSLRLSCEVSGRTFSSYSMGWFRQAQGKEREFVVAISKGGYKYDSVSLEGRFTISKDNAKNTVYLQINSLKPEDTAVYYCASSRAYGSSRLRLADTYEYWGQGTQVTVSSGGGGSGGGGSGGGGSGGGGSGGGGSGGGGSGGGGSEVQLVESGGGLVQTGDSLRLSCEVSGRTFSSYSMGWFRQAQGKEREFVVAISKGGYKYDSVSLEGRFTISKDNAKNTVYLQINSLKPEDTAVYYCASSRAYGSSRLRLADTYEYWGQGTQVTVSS"
  RESULT_TYPE: "ka2"
  RESULT: "0.029 s⁻¹"

Note: attention shifts to another entry.
So for VEGFBII024 (VHH, not shown: small tags and cut ends, Bivalent anti-VEGF VHH; also called VEGFBII23B04-40GS-86H09) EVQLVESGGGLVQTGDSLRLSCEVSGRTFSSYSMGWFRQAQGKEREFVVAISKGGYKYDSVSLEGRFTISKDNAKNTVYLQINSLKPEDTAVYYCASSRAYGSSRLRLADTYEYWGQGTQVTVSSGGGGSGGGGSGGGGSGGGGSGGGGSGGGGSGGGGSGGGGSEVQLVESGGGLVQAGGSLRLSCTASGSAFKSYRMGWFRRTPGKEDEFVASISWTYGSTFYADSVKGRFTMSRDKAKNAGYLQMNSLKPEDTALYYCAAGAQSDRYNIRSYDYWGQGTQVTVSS , the logged ka2 turned out to be 0.026 s⁻¹
